- PROTOCOL: yeast display, Sf9 membrane polyspecificity reagent, FACS + sequencing; frameworks hold sequencing errors
ENDPOINT LABEL: polyreactivity (PSR sort gate)

MACROMOLECULE SEQUENCE: QVQLVESGGGLVQAGGSLRISCAASGSTFNINAMGWYRQAPGKERELVAAIRYRGGSTNYADSVKGRFTISRDNAKNNVYLQMNSLKPEDTAVYYCAATYSRHTNGYSKYCYWGQGTQVTVSS
MEASUREMENT: high polyreactivity
--
MACROMOLECULE SEQUENCE: QVQLVESGGGLVQAGGSLRLSCAASGSTLYSYAMGWYRQAPGKERELVAAISIGGRTYYADSVKGRFTISRDNAKNTVYLQMNSLKPEDTAVYYCNKYYGPRTYLSAQGRSYGYWGQGTQVTVSS
MEASUREMENT: high polyreactivity

====

- PROTOCOL: yeast display, Sf9 membrane polyspecificity reagent, FACS + sequencing; frameworks hold sequencing errors
ENDPOINT LABEL: polyreactivity (PSR sort gate)

MACROMOLECULE SEQUENCE: QVQLVESGGGLVQAGGSLRLSCAASGCIFRYYAKGWYRQPPGKERELVPVISSNGARTSYADSVKGRFTISRDNATYTVYLQMNSLKPEDTAVYYCNARAWSRFPPVGHDDWGQGTQVTVSS
MEASUREMENT: high polyreactivity
--
MACROMOLECULE SEQUENCE: QVQLVESGGGLVQAGGSLRLSCAASGRIFVIYAMGWYRQAPGKERELVASIRSSSTYYADSVKGRFTISRDNAKNTVYLQMNSLKPEDTAVYYCAAVAEYRGYDYWGQGTQVTVSS
MEASUREMENT: low polyreactivity
--
MACROMOLECULE SEQUENCE: QVQLVESGGGLVQAGGSLRLSCAASGSTFVRYAMGWYRLAPGKERELVAAIAKSGGSTYYADSVKGRFTISRDIAKNTVYLQMNSLKPEDTAVDYCNSDVYKNSKVRIMGYWGLGTQVTVSS
MEASUREMENT: low polyreactivity
--
MACROMOLECULE SEQUENCE: QVQLVESGGGLVQAGGSLRLSCAASGRTFKNYAMGWYRQAPGKERELVAAISSGGGRTKYADSVKGRFTISRDNAKNSVYLQMNSLKPEDTAVYYCAAAYYYRDDYWGQGTQVTVSS
MEASUREMENT: high polyreactivity
--
MACROMOLECULE SEQUENCE: QVQLVESGGGLVQAGGSLRLRSAASGRTFVPYHMGCYRQAPGKERELVADISSGDSTNYTDSVKGRFTISRDNAKNTVYLQMNSLKPEDTAVYFCAADLTYTMDHWGLGTQVTVSS
MEASUREMENT: low polyreactivity

====

- PROTOCOL: yeast display, Sf9 membrane polyspecificity reagent, FACS + sequencing; frameworks hold sequencing errors

MACROMOLECULE SEQUENCE: QVQLVESGGGLVQAGGSLRLSCAASGSIFVKYAMGWYRQAPGKERELVAAISRRGGSTNYADSVKGRFTISRDNAKNTVYLQMNSLKPEDTAVYYCNAQTVTSYGGDSWGQGTQVTVSS
polyreactivity (PSR sort gate): high polyreactivity

MACROMOLECULE SEQUENCE: QVQLVESGGALVQAGGSLSLSCAASGSIFVGNAMGWYRQAPGKERELVAAINGGGTNYADSVKGRFTFSRDNAKNTVYLQMNSLKPEDTAVYYCAAPVRSNDSAYLHRDNDYWGQGTQVTVSS
polyreactivity (PSR sort gate): low polyreactivity

MACROMOLECULE SEQUENCE: QVQLVESGGGLVQAGGSLRLSCAASGFTLLKYAMGWYIQAPGKERELVAAITRRGGRTSYADSVKGRFTISRDNAKNTVYLQMNSLKPEDTAVYYCNADGDTGRFDYWGQGTQVTVSS
polyreactivity (PSR sort gate): high polyreactivity

MACROMOLECULE SEQUENCE: QVQLVESGGGLVQAGGSLRLSCAASGSIFNINVMGWYRQAPGKEREMVAAINSGTSTYYADSVKGRFTISRDNAKNTVYLQMNSLKPEDTAVYYCAARNLFTGRRLFYYWGQGTQVTVSS
polyreactivity (PSR sort gate): low polyreactivity

MACROMOLECULE SEQUENCE: QVQLVESGGGLDQAGGSLRLSCAASGSTFSYNAKGWYRQAPGKERELVAAITYRGSSTYYADSVKGRFTSSRDNAKNTVDLQMNSLKPEDTAVYYCAVSYVRYRGSGLTAFNYWGQGTQVTVSS
polyreactivity (PSR sort gate): high polyreactivity

MACROMOLECULE SEQUENCE: QVQLVESGGGLVQAGGSLRLSCAASGFIFLKYRMGWYRQAPGKEREFVAAISRRGGSTNYADSVKGRFTISRDNEKNTVYLQMNSLKPEDTAVYYCGTDAFAGPVSYYYWGQGTQVSVSS
polyreactivity (PSR sort gate): high polyreactivity

MACROMOLECULE SEQUENCE: QVQLVESGGGLVQAGGSLRLICAASGLIFVSYAMGWSRQAPGKERELVAAITYGGDSTFYADSVKGRFTISRDNAKNTVYLQMNSLKPEDTAVYYCNADIWFIWHSFGWGYDYWGQGTQVTVSS
polyreactivity (PSR sort gate): low polyreactivity

MACROMOLECULE SEQUENCE: QVQLVESGGGLVQAGGSLRLSCAASGSTFGIYARGGYRQAPGNERELVAAISWRGGRTYYADSVKGRFTISRDNAKNTVYLQMNSLKPEDTAVYYCAADLAVYYIFLALEFNYWGQGTQVTVSS
polyreactivity (PSR sort gate): low polyreactivity

MACROMOLECULE SEQUENCE: QVQLVESGGCLVQAGGSLRLSCAASGSIFDRYAMGWYRQAPGKERGLVAAISSSGGSTYYADSVKGRFTISRDNAKNTVYLQMNSLKPEDTAVYYCAAEYYASPYYWSYDYWGQGTQVTVSS
polyreactivity (PSR sort gate): high polyreactivity

MACROMOLECULE SEQUENCE: QVQLVESGGCLDQAGGSLRLSWDASGRTFDFNAIGWYRQAPGKERELVAAITHSAGRTYYADSVKGRFTLSRDIAKNTVYLQMNSLKREDTAVYYCATRYYNYARTSYGYWGQGTQVTVSS
polyreactivity (PSR sort gate): high polyreactivity

MACROMOLECULE SEQUENCE: QVQLVDSGGGLVQAGGSLRLSCAASGSTIKYYAMGWYRQEPGKERELVAAINWSGDSTYYADSVKGRFTISRDYAKITVYLQKISLKPEDTAVYYCAVRYQKRAYYGSNYWGQGTQVTVSS
polyreactivity (PSR sort gate): high polyreactivity

MACROMOLECULE SEQUENCE: QVQLVESGGGLVQAGGSLRLSCAASGSIFGIYVMGWYRQAPGKERELVAGISTRGGSTYYADSVKGRFTISRDNAKNTVYLQMNSLKPEDTAGYYCAAVPASYRDPMYYWGQGTQVTVSS
polyreactivity (PSR sort gate): low polyreactivity

MACROMOLECULE SEQUENCE: QVQLVESGGGLVQAGGSLRLSCAASGNIFKGHVMGSYRKAPGKERELVAAISRSGGYTYYAVSVKGRFTISRDNAKNTVYLQMNSLKPADTAVYYCAAGRRLVRVVGGDYYGRYVYWGQGTQVTLSS
polyreactivity (PSR sort gate): high polyreactivity

MACROMOLECULE SEQUENCE: QVQLVESGGGLVQAGGSLRLSCAASGFIFTYNAMGWYIQAPGKEREFVASISRSGGRTYYADSVKGRFTISRDNAKNTVYLQMNSLKPEDTAVYYCAARNAYVYGMDYWGQGTQVTVSS
polyreactivity (PSR sort gate): low polyreactivity

MACROMOLECULE SEQUENCE: QVQLVESGGGLVQAGGSLRLSCAASGRTFGWYAMGWYRQAPGKERELVASITQRGGRTYYADSVKGRFTISRDNAKNTVYLQMNSLKPEDTAVYYCAAKTSPGMYYWGQGTQVTVSS
polyreactivity (PSR sort gate): high polyreactivity

MACROMOLECULE SEQUENCE: QVQLVESGGGLVQAGGSLRLICAASGSILSTYAMGWYREAPGKERELVADISGRVGSTYYADSVKGRFTISRDNAKNTDYLQMNSLKPEDTAVYYCAAALDYWPGYEYYYWGQGTQVTVSS
polyreactivity (PSR sort gate): low polyreactivity

MACROMOLECULE SEQUENCE: QVQLVESGGGLVQAGGSLRLSCAASGFIIDEYAMGWYRQAPGKERELVAAISWSGSRTYYADSVKGRFTISRDNAKNTVYLQMNSLKPEDTAVYYCAKVTGVGAGRRIYWGQGTQVTVSS
polyreactivity (PSR sort gate): low polyreactivity

MACROMOLECULE SEQUENCE: QVQLVESGGGLVQAGGSLRLSCAASGRTCWDYAMGWYRPAPGKERELVAAITWGGGSTYYADSVKGRFTISRDNAKNTVYLQMNSLKPEDTAVYYCAADTKGWGQGTQVTVSS
polyreactivity (PSR sort gate): low polyreactivity

MACROMOLECULE SEQUENCE: QVQLVESGGGLVQAGGSLRLSCAASGSTIFENVMGWYRQAPGKEREFVAAINTSGGSTYYADSVKGRFTISRDNAKNTVYLQMNSLKPEDTAVYYCARDSYWEMDYWGQGTQVTVSS
polyreactivity (PSR sort gate): low polyreactivity

MACROMOLECULE SEQUENCE: QVQLVESGGGLVQAGGSLRLSCAASGSTFSRNAMGWYRQAPGKEREFVAAISTSGDSTYYADSVKGRFTISRDNAKNTVYLQMNSLKPEDTAVYYCADDGFWIAYQEGDYWGQGTQVTVSS
polyreactivity (PSR sort gate): low polyreactivity

MACROMOLECULE SEQUENCE: QVQLLESGGGLVQAGGSLRLSSMASASILGDRMSWYRQAPGKEHELVATIYDGGISYYADSMKGRFTISRDNAKNTVYLQMNSLRPEDTAVFFCGASFEGYRFHVYCGQGTQVTVSS
polyreactivity (PSR sort gate): low polyreactivity

Ref: the nanobody polyreactivity screen of Harvey et al. (2022)
